Where do the numbers come from? From the supplement of paper PMC8728848.

- MEASURED TARGET: Gal(a1-6)Glc
- METHOD SUMMARY: glycan array binding signal (z-score within array); higher = stronger binding
- CONDITIONS: glycan notation: IUPAC condensed, linker removed
This excerpt belongs to a sample that is enriched for the strongest signals.
Known glycan array binding signal (z-score) of a selection of binders

| BINDER | glycan array binding signal (z-score) |
| --- | --- |
| LKITALY (Gibberella zeae) (protein) MGNFHESSNNIWLEDGHILHAECGNGEGDYVESTLDLDYYIGNDDGSFSWGGENFSGSASNITLDIEGDDNIPVLRAELNPMDGDPVEANVNLSERIGNDCGTLIFLA | -0.352 |
| Epa3to1 (Candida glabrata) (protein) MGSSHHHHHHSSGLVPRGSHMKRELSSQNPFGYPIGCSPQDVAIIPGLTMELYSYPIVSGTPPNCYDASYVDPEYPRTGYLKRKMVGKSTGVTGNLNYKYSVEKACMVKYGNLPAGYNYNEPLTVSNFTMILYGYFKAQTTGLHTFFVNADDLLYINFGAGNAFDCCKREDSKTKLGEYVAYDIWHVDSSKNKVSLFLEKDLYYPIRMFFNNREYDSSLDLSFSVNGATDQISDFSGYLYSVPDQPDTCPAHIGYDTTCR | 1.7 |
| FaeGad (Escherichia coli) (protein) WMTGDFNGSVDIGGSITADDYRQKWEWEVGTGLNGFGSVLNDLTNGGTKLTITVTGNKPILLGRTKEAFATPVTSGVDGIPHIAFTDYEGASVELRNPDGETEKGLTYFVLPMKNAEGTKVGSVKVNASYAGALGRGGVTSADGELMSLFAEGSHAIFYGGLPTNVKNSELKGGSAAAARTELFGSLSKNDILGQIQRVNANITSLVNVPGSFNENMAYTDGSVVSVAYALGIANGQTIEATFNQAVTTSTQWSAPLNVAITYY | 0.615 |
